system: MCF-7 (breast adenocarcinoma); experiment: MTT cell proliferation assay, MCF-7; assay type: cell-based; settings: Homo sapiens, MCF7, MCF-7, 72 h of exposition, read-out: Anti-proliferative activity IC50, MCF-7
pIC50: −log10 of the molar value.
PARAMETER: pIC50

// solved cases for pIC50 follow
MOLECULE	pIC50
Cc1cn(-c2cc(NC(=O)c3ccc(C(=O)N4CCN(C(=O)c5cccc(F)c5)CC4)cc3)cc(C(F)(F)F)c2)cn1 [Compound 27]	4.31
Cc1cn(-c2cc(NC(=O)c3cccc(C(=O)N4CCN(C(=O)c5cccc(F)c5)CC4)c3)cc(C(F)(F)F)c2)cn1 [Compound 15]	4.56
CNC(=O)c1cc(Oc2ccc(NC(=O)Nc3ccc(Cl)c(C(F)(F)F)c3)cc2)ccn1 [Sorafenib, reference compound]	5.06
Cc1cn(-c2cc(NC(=O)c3ccc(C(=O)Nc4cc([N+](=O)[O-])ccc4C)cc3)cc(C(F)(F)F)c2)cn1 [Compound 24]	4.81
O=C(Nc1cccc(C(F)(F)F)c1)c1cccc(C(=O)N2CCN(C(=O)c3cccc(F)c3)CC2)c1 [Compound 9]	4.58

1 = O=C(Nc1cccc(C(F)(F)F)c1)c1cccc(C(=O)N2CCN(C(=O)c3ccccc3F)CC2)c1 [Compound 8]
2 = Cc1cn(-c2cc(NC(=O)c3cccc(C(=O)Nc4cc(-n5cnc(C)c5)cc(C(F)(F)F)c4)c3)cc(C(F)(F)F)c2)cn1 [Compound 10]
3 = Cc1cn(-c2cc(NC(=O)c3cccc(C(=O)Nc4cccc(C(F)(F)F)c4)c3)cc(C(F)(F)F)c2)cn1 [Compound 5]
// smallest pIC50 at index 0, largest at the end Response format: the labels, sorted as the prompt asks.
2, 1, 3

Cited source for all entries: paper PMC10046946
